Biological target: SMARCA2 (Homo sapiens, UniProt P51531)
Sequence (P51531 whole entry): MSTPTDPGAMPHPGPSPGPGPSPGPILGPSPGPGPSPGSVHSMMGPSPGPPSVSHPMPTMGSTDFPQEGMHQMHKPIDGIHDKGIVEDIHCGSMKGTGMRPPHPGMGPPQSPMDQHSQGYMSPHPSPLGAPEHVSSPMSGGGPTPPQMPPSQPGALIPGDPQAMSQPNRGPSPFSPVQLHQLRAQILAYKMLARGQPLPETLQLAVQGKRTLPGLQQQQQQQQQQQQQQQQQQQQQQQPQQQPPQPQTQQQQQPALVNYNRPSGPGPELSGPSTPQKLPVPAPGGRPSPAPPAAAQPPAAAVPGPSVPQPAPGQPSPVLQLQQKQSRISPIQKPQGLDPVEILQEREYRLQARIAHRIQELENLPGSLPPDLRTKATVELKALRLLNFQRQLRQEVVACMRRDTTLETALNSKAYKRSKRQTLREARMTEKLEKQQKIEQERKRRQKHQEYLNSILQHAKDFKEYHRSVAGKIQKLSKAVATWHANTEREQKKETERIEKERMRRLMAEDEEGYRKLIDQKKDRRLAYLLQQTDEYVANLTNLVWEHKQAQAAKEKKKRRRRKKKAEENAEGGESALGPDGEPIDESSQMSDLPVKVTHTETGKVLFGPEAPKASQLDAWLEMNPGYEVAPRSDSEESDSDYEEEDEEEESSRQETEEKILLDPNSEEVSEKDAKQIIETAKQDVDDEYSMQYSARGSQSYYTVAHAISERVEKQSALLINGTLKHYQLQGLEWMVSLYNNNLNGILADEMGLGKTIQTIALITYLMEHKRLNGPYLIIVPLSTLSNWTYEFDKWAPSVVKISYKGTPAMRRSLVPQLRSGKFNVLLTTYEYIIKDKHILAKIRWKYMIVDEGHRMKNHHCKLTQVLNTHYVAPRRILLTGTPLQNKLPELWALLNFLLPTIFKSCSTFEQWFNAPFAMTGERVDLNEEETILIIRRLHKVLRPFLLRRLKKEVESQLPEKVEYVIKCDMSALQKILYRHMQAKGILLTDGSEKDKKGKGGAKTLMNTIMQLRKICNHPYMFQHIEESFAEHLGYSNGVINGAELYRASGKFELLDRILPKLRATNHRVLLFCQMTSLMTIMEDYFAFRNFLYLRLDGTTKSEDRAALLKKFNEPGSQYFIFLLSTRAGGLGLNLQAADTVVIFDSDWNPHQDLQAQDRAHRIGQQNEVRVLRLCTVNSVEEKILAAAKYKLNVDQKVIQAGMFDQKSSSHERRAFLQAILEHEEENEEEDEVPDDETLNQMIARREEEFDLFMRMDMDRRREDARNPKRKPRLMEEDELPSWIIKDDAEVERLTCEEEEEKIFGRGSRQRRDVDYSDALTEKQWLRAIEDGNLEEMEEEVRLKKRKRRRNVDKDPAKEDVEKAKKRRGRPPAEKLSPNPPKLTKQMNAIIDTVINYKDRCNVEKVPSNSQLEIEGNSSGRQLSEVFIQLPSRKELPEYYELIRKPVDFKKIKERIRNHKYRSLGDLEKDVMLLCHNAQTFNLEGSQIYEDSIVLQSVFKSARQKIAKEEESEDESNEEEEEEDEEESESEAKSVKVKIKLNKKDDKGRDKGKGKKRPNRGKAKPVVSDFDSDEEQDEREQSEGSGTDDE
Test: SMARCA2 Western blot degradation in MV4-11 cells
Type: cell-based
Set-up: SMARCA2/SMARCA4 protein degradation selectivity in MV4-11 cells; endogenous in cells; host or cells: MV4-11
Conditions: MV4-11, MV4-11 cells, 24 h; read-out: SMARCA2 MSD MV411 degradation 24 h: average Dmax %
Parameter: Dmax

Answered cases to consult:
Compound: C#Cc1ccc(CNC(=O)[C@@H]2C[C@@H](O)CN2C(=O)[C@@H](NC(=O)[C@H]2CCC3(CC2)C[C@H](N2CCC(c4cnc(N5CCN6c7cc(-c8ccccc8O)nnc7NC[C@H]6C5)nc4)CC2)C3)C(C)(C)C)c(OCCCOC)c1 (single isomer, unassigned)
Dmax: > 90%
//
Compound: Cc1ncsc1-c1ccc(CNC(=O)[C@@H]2C[C@@H](O)CN2C(=O)[C@@H](NC(=O)[C@H]2CC3(CC[C@H](N4CCN(c5cnc(N6CCc7[nH]c8nnc(-c9ccccc9O)cc8c7[C@H]6C)nc5)CC4)CC3)C2)C(C)(C)C)cc1 (single isomer, unassigned)
Dmax: 70 to 90%
//
Compound: C#Cc1ccc(CNC(=O)[C@@H]2C[C@@H](O)CN2C(=O)[C@@H](NC(=O)N2CCN(C[C@H]3CC[C@H](N4CCC(N5CCN6c7cc(-c8ccccc8O)nnc7NC[C@H]6C5)CC4)CC3)CC2)C(C)(C)C)cc1
Dmax: 50 to 70%
//
Compound: C#Cc1ccc(CNC(=O)[C@@H]2C[C@@H](O)CN2C(=O)[C@@H](NC(=O)[C@H]2CCC3(CC2)C[C@H](N2CCN(c4cnc(N5CCN6c7cc(-c8ccccc8O)nnc7NC[C@H]6C5)nc4)CC2)C3)C(C)(C)C)c(OC)c1 (single isomer, unassigned)
Dmax: > 90%
//
Compound: Cc1ncsc1-c1ccc([C@H](C)NC(=O)[C@@H]2C[C@@H](O)CN2C(=O)[C@@H](NC(=O)Cc2ccc(CCCC(=O)N3CCN4c5cc(-c6ccccc6O)nnc5NC[C@H]4C3)cc2)C(C)(C)C)cc1 (single isomer, unassigned)
Dmax: > 90%

Which Dmax value belongs to C#Cc1ccc(CNC(=O)[C@@H]2C[C@@H](O)CN2C(=O)[C@@H](NC(=O)[C@H]2CCC3(CC2)C[C@H](N2CCC(c4cnc(N5CCN6c7cc(-c8cccc(F)c8O)nnc7NC[C@H]6C5)nc4)CC2)C3)C(C)(C)C)cc1 (single isomer, unassigned) ? 70 to 90%

Thanks! And `C#Cc1ccc([C@H](C)NC(=O)[C@@H]2C[C@@H](O)CN2C(=O)[C@@H](NC(=O)N2CC3(CC(N4CCC(c5cnc(N6CCc7[nH]c8nnc(-c9ccccc9O)cc8c7[C@H]6CO)nc5)CC4)C3)C2)C(C)(C)C)cc1` ? 70 to 90%

What do we get for `C#Cc1ccc(CNC(=O)[C@@H]2C[C@@H](O)CN2C(=O)[C@@H](NC(=O)N2CCN(C[C@H]3CC[C@H](N4CCc5[nH]c6nnc(-c7ccccc7O)cc6c5[C@H]4C)CC3)CC2)C(C)(C)C)cc1` ? 50 to 70%

###

Target: SMARCA2 (Homo sapiens)
Experiment: SMARCA2 Western blot degradation in MV4-11 cells
Format: cell-based
Set-up: SMARCA2/SMARCA4 protein degradation selectivity in MV4-11 cells; endogenous in cells; host or cells: MV4-11
Settings: MV4-11 cells, 24 h; read-out: SMARCA2 MSD MV411 degradation 24 h: Mean external-Abs DC50
Parameter: DC50

Here is how some compounds turned out for DC50.
Compound: Cc1ncsc1-c1ccc(CNC(=O)[C@@H]2C[C@@H](O)CN2C(=O)[C@@H](NC(=O)C2(F)CC2)C(C)(C)C)c(O[C@H]2CC[C@H](N3CCC(N4CCC(c5cnc(N6CCc7[nH]c8nnc(-c9ccccc9O)cc8c7[C@@H]6C)nc5)CC4)CC3)CC2)c1 (single isomer, unassigned)
DC50: 1 to 10 nM

Compound: CC(C)C(C(=O)N1C[C@H](O)C[C@H]1C(=O)N[C@@H](C)C#Cc1ccccc1)c1cc(OCCN2CCC(N3CCC(N4CCC(CN5CCN6c7cc(-c8ccccc8O)nnc7NC[C@H]6C5)CC4)CC3)CC2)no1 (stereo partly shown)
DC50: > 100 nM

Compound: C#Cc1ccc(CNC(=O)[C@@H]2C[C@@H](O)CN2C(=O)[C@@H](NC(=O)[C@H]2CCC3(CC2)C[C@H](N2CCC(c4cnc(N5CCN6c7cc(-c8ccccc8O)nnc7NC[C@H]6C5)nc4)CC2)C3)C(C)(C)C)c(OCCCN(C)C)c1 (single isomer, unassigned) [I-158]
DC50: 1 to 10 nM

Compound: C#Cc1ccc(CNC(=O)[C@@H]2C[C@@H](O)CN2C(=O)[C@@H](NC(=O)[C@H]2CC3(C2)C[C@H](c2cnc(N4CCC(N5CCN6c7cc(-c8ccccc8O)nnc7NC[C@H]6C5)CC4)nc2)C3)C(C)(C)C)cc1 (stereo partly shown) [I-302]
DC50: 1 to 10 nM

Compound: Cc1ncsc1-c1ccc(CNC(=O)[C@@H]2C[C@@H](O)CN2C(=O)[C@@H](c2cc(N3CC4(CC(N5CCC(c6cnc(N7CCN8c9cc(-c%10ccccc%10O)nnc9NC[C@H]8C7)nc6)CC5)C4)C3)no2)C(C)C)cc1 (single isomer, unassigned)
DC50: < 1 nM

Please report the recorded DC50 for C#Cc1ccc(CNC(=O)[C@@H]2C[C@@H](O)CN2C(=O)[C@@H](NC(=O)[C@H]2CC3(C2)C[C@H](N2CCC(N4CCC(N5CCN6c7cc(-c8ccccc8O)nnc7NC[C@H]6C5)CC4)CC2)C3)C(C)(C)C)c(Cl)c1 (single isomer, unassigned) [I-230] . 1 to 10 nM

Lookup C#Cc1cnc(CNC(=O)[C@@H]2C[C@@H](O)CN2C(=O)[C@@H](NC(=O)[C@H]2CC3(C2)C[C@H](N2CCC(N4CCC(N5CCN6c7cc(-c8ccccc8O)nnc7NC[C@H]6C5)CC4)CC2)C3)C(C)(C)C)c(OC)c1 (single isomer, unassigned) > 100 nM

Next up: C#Cc1ccc(CNC(=O)[C@@H]2C[C@@H](O)CN2C(=O)[C@@H](NC(=O)[C@H]2CCC3(CC2)C[C@H](N2CCC(c4cnc(N5CCN6c7cc(-c8ccccc8O)nnc7NC[C@H]6C5)nc4)CC2)C3)C(C)(C)C)c(Cl)c1 (single isomer, unassigned) [I-99] 1 to 10 nM
